These measurements were taken from patent US11441162B2.

Target: GPR132 (Homo sapiens, UniProt Q9UNW8)
Sequence (Q9UNW8 whole entry): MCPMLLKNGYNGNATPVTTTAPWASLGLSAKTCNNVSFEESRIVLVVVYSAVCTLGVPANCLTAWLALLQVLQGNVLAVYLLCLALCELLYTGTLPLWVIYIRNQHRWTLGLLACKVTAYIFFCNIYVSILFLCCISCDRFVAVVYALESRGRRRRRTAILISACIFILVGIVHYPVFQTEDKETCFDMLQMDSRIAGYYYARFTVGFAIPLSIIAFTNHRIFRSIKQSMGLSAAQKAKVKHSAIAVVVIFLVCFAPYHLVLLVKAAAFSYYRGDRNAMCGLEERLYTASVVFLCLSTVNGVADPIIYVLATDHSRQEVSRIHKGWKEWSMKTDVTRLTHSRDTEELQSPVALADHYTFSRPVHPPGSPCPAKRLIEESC
Assay: Cell-based β-arrestin reporter assay (DiscoverX), GPR132 agonist mode: orphan panel at 10 uM and concentration-response

{"compound": "NCCc1c[nH]c2ccccc12 [tryptamine]", "EC50": "> 100 µM"}

----------
Target: EBI2/GPR183 (Homo sapiens, UniProt P32249)
Sequence (P32249 whole entry): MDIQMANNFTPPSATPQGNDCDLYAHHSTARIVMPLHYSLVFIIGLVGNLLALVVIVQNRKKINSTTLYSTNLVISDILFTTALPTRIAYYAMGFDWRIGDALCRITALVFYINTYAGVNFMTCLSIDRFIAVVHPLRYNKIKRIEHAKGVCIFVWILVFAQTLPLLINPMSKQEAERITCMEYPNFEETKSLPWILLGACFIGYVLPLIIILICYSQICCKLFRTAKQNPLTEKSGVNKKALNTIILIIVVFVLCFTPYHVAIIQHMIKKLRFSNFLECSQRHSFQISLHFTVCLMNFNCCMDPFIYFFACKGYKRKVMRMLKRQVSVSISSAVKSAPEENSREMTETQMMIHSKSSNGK
Assay: Cell-based β-arrestin reporter assay (DiscoverX), EBI2 antagonist mode: panel at 10 uM and concentration-response
Settings: in the presence of native agonist 7α,25-dihydroxycholesterol at 0.232 uM (EC80); ten concentrations 100 to 0.0051 uM; read-out: IC50, inhibitory activity on EBI2
Procedure: FIGS. 31A-31H show GPCR activity assay of lauroyl tryptamine. a, Cell-based β-arrestin reporter assay (DiscoveRx) with a panel of 168 GPCRs with known ligands in agonist mode and antagonist mode, and also 73 orphan GPCRs in agonist mode at 10 uM. […] FAAs are known to modulate diverse biological functions by interacting with human GPCRs. […] The FAAs were analyzed for activity against a panel of known and orphan human GPCRs using the DiscoverX platform. […]

{"molecule": "CCCCCCCCCCCC(=O)NCCc1c[nH]c2ccccc12 [lauroyl tryptamine]", "system-under-test": "EBI2/GPR183 (Homo sapiens, UniProt P32249)", "reported-relation": "=", "IC50 (nM)": 980}
{"molecule": "CCCCCCCCCCCC(=O)O [lauric acid]", "system-under-test": "EBI2/GPR183 (Homo sapiens, UniProt P32249)", "reported-relation": ">", "IC50 (nM)": 100000}

----------
Target: P2RY4 (Homo sapiens)
Sequence (P51582 whole entry): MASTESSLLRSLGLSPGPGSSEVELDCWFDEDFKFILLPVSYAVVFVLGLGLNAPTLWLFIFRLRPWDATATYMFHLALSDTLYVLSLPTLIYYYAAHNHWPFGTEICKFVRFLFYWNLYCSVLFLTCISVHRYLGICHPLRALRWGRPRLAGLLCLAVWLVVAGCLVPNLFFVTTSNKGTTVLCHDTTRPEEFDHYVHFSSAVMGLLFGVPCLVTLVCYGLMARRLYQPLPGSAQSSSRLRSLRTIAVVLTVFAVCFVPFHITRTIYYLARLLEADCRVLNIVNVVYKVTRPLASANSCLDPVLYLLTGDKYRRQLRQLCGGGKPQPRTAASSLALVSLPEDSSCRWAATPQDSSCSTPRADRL
Test: Cell-based β-arrestin reporter assay (DiscoverX), P2RY4 antagonist mode: panel at 10 uM and concentration-response
Conditions: in the presence of native agonist UTP at 2.79 uM (EC80); ten concentrations 100 to 0.0051 uM; read-out: IC50, inhibitory activity on P2RY4
In this section we review reported IC50 values for a set of molecules.
measurement-label: IC50

{"molecule": "CCCCCCCCCCCC(=O)NCCc1c[nH]c2ccccc12 [lauroyl tryptamine]", "result": "> 100 µM"}
{"molecule": "CCCCCCCCCCCC(=O)O [lauric acid]", "result": "> 100 µM"}

----------
Reported pEC50 values for the following compounds.
Biological target: UniProt:Q9UNW8
Assay: Cell-based β-arrestin reporter assay (DiscoverX), GPR132 agonist mode: orphan panel at 10 uM and concentration-response
Conditions: agonist mode; ten concentrations 100 to 0.0051 uM; read-out: EC50, stimulatory activity on GPR132
pEC50: −log10 of the molar value.

{"mol": "CCCCCCCCCCCC(=O)O", "pEC50": 4.60}
{"mol": "CCCCCCCCCCCC(=O)NCCc1c[nH]c2ccccc12", "pEC50": 5.84}
